Test system: STAT1 (phosphorylated at Tyr701) in NCI-H1373 cells
methodDescription: Phospho-STAT1 (Tyr701) LANCE Ultra TR-FRET detection assay
Format: cell-based
cond: Homo sapiens, NCI-H1373, 48 h, induction of pSTAT1 in NCI-H1373 cells, 48 hours incubation; normalized to 10 uM positive control and DMSO; 4-parameter fit; read-out: NH1373 pSTAT1 EC50
pEC50: −log10 of the molar value.
Some molecules, each annotated with its measured pEC50.

| mol | pEC50 |
| --- | --- |
| N#Cc1cnc(-c2cc3ccn(C[C@@H]4CCC[C@H](Nc5cn[nH]c(=O)c5C(F)(F)F)C4)c(=O)c3c(F)c2F)nc1 | 8.75 |
| CC(C)(O)COc1cnc(-c2cc3ccn(C[C@@H]4CCC[C@H](Nc5cn[nH]c(=O)c5C(F)(F)F)C4)c(=O)c3c(F)c2F)nc1 | 7.51 |
| CC(C)(O)c1cnc(-c2cc3c(F)cn(C[C@@H]4CCC[C@H](Nc5cn[nH]c(=O)c5C(F)(F)F)C4)c(=O)c3cc2F)nc1 | 8.38 |
